These data points were gathered from paper PMC3605307.

molecular target: T1, TRAIL (TNF-related apoptosis inducing ligand) ectodomain (UniProt P50591 39-281); assay: SPR; conditions: one partner purified
T1 construct: also called TNFSF10; Apo2L
T1 sequence (P50591 39-281): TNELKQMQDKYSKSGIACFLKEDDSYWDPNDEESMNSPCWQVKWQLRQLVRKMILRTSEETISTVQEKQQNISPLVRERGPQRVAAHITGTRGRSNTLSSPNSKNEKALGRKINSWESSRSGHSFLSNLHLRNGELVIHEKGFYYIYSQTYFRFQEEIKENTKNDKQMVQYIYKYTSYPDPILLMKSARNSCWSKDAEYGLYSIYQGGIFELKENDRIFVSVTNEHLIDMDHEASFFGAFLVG
metric-name: kon (M⁻¹ s⁻¹)
One number for each entry, in M⁻¹ s⁻¹.

Example cases with answers are listed next.
binder | metric-name | numeric-value
human TRAIL-R2-Fc M152A (Fc fusion, source: Sf9 insect cells, culture supernatant; not shown: Fc (human IgG1), C-terminal, kept) QQDLAPQQRAAPQQKRSSPSEGLCPPGHHISEDGRDCISCKYGQDYSTHWNDLLFCLRCTRCDSGEVELSPCTTTRNTVCQCEEGTFREEDSPEACRKCRTGCPRGMVKVGDCTPWSDIECVHKESG | kon | 3350
human TRAIL-R2-Fc D148A (Fc fusion, source: Sf9 insect cells, culture supernatant; not shown: Fc (human IgG1), C-terminal, kept) QQDLAPQQRAAPQQKRSSPSEGLCPPGHHISEDGRDCISCKYGQDYSTHWNDLLFCLRCTRCDSGEVELSPCTTTRNTVCQCEEGTFREEASPEMCRKCRTGCPRGMVKVGDCTPWSDIECVHKESG | kon | 8000
human TRAIL-R2-Fc P150A (Fc fusion, source: Sf9 insect cells, culture supernatant; not shown: Fc (human IgG1), C-terminal, kept) QQDLAPQQRAAPQQKRSSPSEGLCPPGHHISEDGRDCISCKYGQDYSTHWNDLLFCLRCTRCDSGEVELSPCTTTRNTVCQCEEGTFREEDSAEMCRKCRTGCPRGMVKVGDCTPWSDIECVHKESG | kon | 2100

Next binder, please.
Query: Please report the measured kon for human TRAIL-R2-Fc K155A (Fc fusion, source: Sf9 insect cells, culture supernatant; not shown: Fc (human IgG1), C-terminal, kept) QQDLAPQQRAAPQQKRSSPSEGLCPPGHHISEDGRDCISCKYGQDYSTHWNDLLFCLRCTRCDSGEVELSPCTTTRNTVCQCEEGTFREEDSPEMCRACRTGCPRGMVKVGDCTPWSDIECVHKESG
Response: 3480
